In this section we review reported kcat/Km values for a set of proteins.
# Substrate: CC1=C(CCC(=O)O)c2cc3nc(cc4[nH]c(cc5[nH]c(cc1n2)c(C)c5CCC(=O)O)c(CCC(=O)O)c4C)C(CCC(=O)O)=C3C
# assay.remarks: purified protein
# Assay type: biochemical, Corynebacterium glutamicum
# condition.notes: ferrous ammonium sulfate 100 uM, Tris-HCl pH 8.0, 3.3% Tween 20, 5 mM glutathione, 30 °C

protein	unit.text	kcat/Km
CpfC (coproporphyrin ferrochelatase) (Corynebacterium glutamicum ATCC 13032; E31V) (protein, heterologously expressed in E. coli BL21, purified) MNERTSDAFDALLVLSFGGPEGHEEVRPFLVNVTHGRGIPPERLDEVAVHYHHFGGISPINALNREIIANVEKELASRDHKLPVYFGNRNWKPFDNEAAEQMADDGVKNALVLATSAWGGYSGCRQYQEDIQGMIKHLESQGQSITFTKLRQFYDHPRFVSTMAQLVQDSYAKLPDELRDEARLVFTAHSIPLTADNAAGTPEDGSLYSTQVKEASALIAEAVGVSDFDVVWQSRSGSPHTPWLEPDIVDHAVELNEKGQKALVVCPVGFISDHMEVIWDLDSELMEEAEKRNMVVERVATVGPTDEFAALVVDLIEEAELKRVIERLGKLPARGSSVNGAPCGDGCCGTAKHKTARVNPNARSAAPAAN	M⁻¹ s⁻¹	52900
CpfC (coproporphyrin ferrochelatase) (Corynebacterium glutamicum ATCC 13032; E100D) (protein, heterologously expressed in E. coli BL21, purified) MNERTSDAFDALLVLSFGGPEGHEEVRPFLENVTHGRGIPPERLDEVAVHYHHFGGISPINALNREIIANVEKELASRDHKLPVYFGNRNWKPFDNEAADQMADDGVKNALVLATSAWGGYSGCRQYQEDIQGMIKHLESQGQSITFTKLRQFYDHPRFVSTMAQLVQDSYAKLPDELRDEARLVFTAHSIPLTADNAAGTPEDGSLYSTQVKEASALIAEAVGVSDFDVVWQSRSGSPHTPWLEPDIVDHAVELNEKGQKALVVCPVGFISDHMEVIWDLDSELMEEAEKRNMVVERVATVGPTDEFAALVVDLIEEAELKRVIERLGKLPARGSSVNGAPCGDGCCGTAKHKTARVNPNARSAAPAAN	M⁻¹ s⁻¹	38100
